Entries and their IC50
Target: Calpain-2 catalytic subunit (Sus scrofa)
Sequence (P43367 whole entry): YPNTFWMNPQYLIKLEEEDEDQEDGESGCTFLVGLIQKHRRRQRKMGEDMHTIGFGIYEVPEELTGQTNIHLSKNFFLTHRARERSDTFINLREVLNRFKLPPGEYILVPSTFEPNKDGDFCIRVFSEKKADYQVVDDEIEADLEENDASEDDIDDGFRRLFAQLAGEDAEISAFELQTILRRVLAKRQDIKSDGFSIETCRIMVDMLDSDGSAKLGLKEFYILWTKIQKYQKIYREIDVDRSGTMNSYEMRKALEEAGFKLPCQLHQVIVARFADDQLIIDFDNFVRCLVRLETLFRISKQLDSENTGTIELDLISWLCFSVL
Assay: pig calpain II inhibitor potency, dose response, biochemical, fluorogenic peptide substrate (AID 1420)
Assay type: functional
MEASURED_METRIC: IC50

> print(dat)
                                smiles.repr                            assayed.system                result
1  O=C(CN(C(=O)CSc1nnc(COc2ccccc2)o1)c1ccc(F)cc1)NC1CCCCC1  Calpain-2 catalytic subunit (Sus scrofa)  3.19 µM (not active)
2  Cc1sc(NC(=S)NC(=O)c2cccs2)nc1-c1ccc(C(C)C)cc1  Calpain-2 catalytic subunit (Sus scrofa)    26 µM (not active)
3  O=C(/C=C/c1ccc([N+](=O)[O-])cc1)NCCSc1ccccc1  Calpain-2 catalytic subunit (Sus scrofa)  15.9 µM (not active)
4  Nc1nonc1-c1noc(CCCCCN2C(=O)c3ccccc3C2=O)n1  Calpain-2 catalytic subunit (Sus scrofa)  2.74 µM (not active)
5  CCOc1ccc(NC2=NC(=O)S/C2=C\c2ccc(Cl)cc2)cc1  Calpain-2 catalytic subunit (Sus scrofa)  > 50 µM (not active)

----------
target: Corticotropin-releasing factor receptor 2/Corticotropin-releasing factor-binding protein (Homo sapiens, UniProt P24387+Q13324); test: Dose Response confirmation of uHTS hits for small molecule antagonists of the CRF-binding protein and CRF-R2 receptor complex.; type: functional; conditions: read-out: IC50_Mean
Sequence (Q13324 whole entry): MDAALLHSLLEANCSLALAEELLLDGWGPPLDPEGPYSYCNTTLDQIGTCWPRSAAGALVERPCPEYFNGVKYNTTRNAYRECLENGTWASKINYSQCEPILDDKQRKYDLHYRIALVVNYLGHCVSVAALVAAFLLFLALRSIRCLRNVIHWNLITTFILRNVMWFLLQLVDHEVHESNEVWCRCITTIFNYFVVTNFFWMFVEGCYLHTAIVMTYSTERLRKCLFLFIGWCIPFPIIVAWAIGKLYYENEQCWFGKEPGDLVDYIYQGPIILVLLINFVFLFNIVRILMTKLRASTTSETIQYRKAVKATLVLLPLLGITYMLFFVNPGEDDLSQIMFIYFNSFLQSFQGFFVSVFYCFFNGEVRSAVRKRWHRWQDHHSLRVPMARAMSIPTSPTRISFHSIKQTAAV
Sequence (P24387 whole entry): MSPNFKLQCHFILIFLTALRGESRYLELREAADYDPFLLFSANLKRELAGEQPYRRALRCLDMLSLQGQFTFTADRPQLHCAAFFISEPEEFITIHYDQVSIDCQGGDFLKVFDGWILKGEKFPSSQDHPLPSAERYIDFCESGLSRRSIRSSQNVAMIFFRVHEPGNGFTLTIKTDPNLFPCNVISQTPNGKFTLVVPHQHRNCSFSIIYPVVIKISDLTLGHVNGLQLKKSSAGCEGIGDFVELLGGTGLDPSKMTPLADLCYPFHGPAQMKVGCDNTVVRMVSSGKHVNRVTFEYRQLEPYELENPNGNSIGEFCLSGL
Active and inactive are the calls of the source.
Outcome codes: yes (1) = active, no (0) = inactive

> print(dat)
                                    compound  category.label
 1  Cc1ccc(S(=O)(=O)NC2=NCN(C3CCN(Cc4ccccc4)CC3)CN2)cc1          no (0)
 2        COC(=O)C(F)(F)Sc1c(C)[nH]c2ccccc12         yes (1)
 3  C=CCN(c1ccccc1)S(=O)(=O)c1cccc(C(=O)OCC(=O)NCCOC)c1          no (0)
 4                 O=Nc1nc2ncccn2c1-c1ccccc1          no (0)
 5     O=C(Cc1c(O)c2ccccc2[nH]c1=O)OC1CCCCC1          no (0)
 6  CC1CCc2c(C(=O)Nc3ccccn3)csc2C1 (stereo not drawn)          no (0)
 7  COc1ccccc1NC(=O)CN1C(=O)CCS(=O)(=O)c2ccccc21          no (0)
 8   CN1CCN(CC(=O)Nc2cc(N(C)C)nc3ccccc23)CC1          no (0)
 9  Cc1ccc([C@H]2C(C(=O)O)=CC[C@@H](c3ccc(C)cc3)N2S(=O)(=O)c2ccc(C)cc2)cc1         yes (1)
10  Cc1ccc(-c2ccc(SCC(=O)NCC3CCCO3)nn2)cc1 (stereo not drawn)          no (0)
11  O=C(NCc1ccc(F)cc1)C(=O)NCC1OCCN1C(=O)c1ccc(Cl)cc1 (stereo not drawn)          no (0)
12      COC(=O)c1cc(C#N)c(N(C)Cc2ccccc2)nc1C         yes (1)
13  Cc1cc(C(=O)CN2C(=O)NC(C)(CC(C)C)C2=O)c(C)n1-c1ccc2c(c1)OCO2 (stereo not drawn)         yes (1)
